Reported MIC values for a set of compounds
System: E. coli ΔtolC
Test: microbe, parasite or virus in culture
Format: cell-based, Escherichia coli
Conditions: Escherichia coli, 18 h, read-out: Minimum Inhibitory Concentration, ΔtolC
Give the value, in units of µg/mL, as a plain number.

Look over these answered cases.
Smiles Record	MIC (µg/mL)
[H]/N=C(\N/C(=N/[H])NCCCCCCNC(=N)NC(=N)Nc1ccc(Cl)cc1)Nc1ccc(Cl)cc1	0.391
CC(=O)O[C@H]1C[C@@]2(C)[C@@H](C[C@@H](O)[C@H]3[C@@]4(C)CC[C@@H](O)[C@@H](C)[C@@H]4CC[C@@]32C)/C1=C(\CCC=C(C)C)C(=O)O	3.12

In: Which measured MIC value corresponds to O=C(N[C@H](CO)[C@H](O)c1ccc([N+](=O)[O-])cc1)C(Cl)Cl ?
Out: 1.56

In: Proceed to CCn1cc(C(=O)O)c(=O)c2ccc(C)nc21
Out: 1.25
